Data provenance: ChEMBL document CHEMBL4725449

Assay: Cmax in C57BL/6 mouse at 3 mg/kg, po
Type: ADME, organism-based
Design: route oral, dose 3 mg/kg
Details: in vivo
reported-metric: Cmax (ng/mL)
Numbers only, in ng/mL.

Requested read-out: Cmax. Entry: `CNC(=O)c1csc2c(C(F)(F)F)cc(N3CCC(OC(=O)N[C@@H](C)COC(F)(F)F)CC3)nc12`
306

* * *

Assay: Volume of distribution at steady state in Sprague-Dawley rat at 1 mg/kg, iv
Type: ADME, organism-based
Details: in vivo, read-out: Vdss
reported-metric: Vd (L/kg)
Give bare numbers, in L/kg.

Requested read-out: Vd. Entry: `CNC(=O)c1csc2c(C(F)(F)F)cc(N3CCC(OC(=O)N[C@@H](C)COC(F)(F)F)CC3)nc12`
1.52
